So I've got a bunch of compounds here, and I need their percent of growth of human tumor cells values.
- Test system: UACC-62
- method-description: NCI screen, growth of human tumor cells: Melanoma UACC-62
- Format: cell-based
- run-conditions: UACC-62 (Melanoma), 10^−4 molar
Response body: numeric value in %, unit text excluded.

So what does the record say about percent of growth of human tumor cells for CC1S(=O)(=O)OCCOS1(=O)=O [NSC 372239] ? −14

# repeat for CC=CC(=O)C1(C2=C(Cl)C(=O)c3ccccc3C2=O)S(=O)(=O)OCCOS1(=O)=O [NSC 731264] −16

Same lookup for CC(=O)C1(CC2=C(C)C(=O)c3ccccc3C2=O)S(=O)(=O)OCCOS1(=O)=O [NSC 701690] , please. −57

Try the compound O=S1(=O)OCCOS(=O)(=O)C1(Cl)Cl [NSC 648307] 7

Subsequent entry: O=S1(=O)OCCOS(=O)(=O)C1C1c2ccccc2-c2ccccc21 [NSC 686562, ethylene 9-fluorenylmethanedisulfonate] 10

Now consider O=S1(=O)CS(=O)(=O)OCCO1 [NSC 348948, ethylene methanedisulfonate] and answer again. −13

Thanks! And CC=CC(=O)C1(Cc2ccc3c(c2)C(=O)c2ccccc2C3=O)S(=O)(=O)OCCOS1(=O)=O [NSC 731263] ? 16

Then O=S1(=O)OCCOS(=O)(=O)C1I [NSC 648309, ethylene iodomethanedisulfonate] ? 17

* * *

- Tested on: ACHN
- method-description: NCI screen, growth of human tumor cells: Renal Cancer ACHN
- Assay type: cell-based
- run-conditions: ACHN, 10^−4 molar
Binary call on % Growth: YES from -80% upward, NO beneath that.

Answer whether % Growth of Cc1ccc2ccccc2c1CC1S(=O)(=O)OCCOS1(=O)=O [NSC 679043] is greater than or equal to -80%. NO

What about this compound? CC1=C(CC2(S(=O)(=O)C(F)(F)F)S(=O)(=O)OCCOS2(=O)=O)C(=O)c2ccccc2C1=O [NSC 720682] YES

Param item: CC1=C(CC2S(=O)(=O)OCCOS2(=O)=O)C(=O)c2ccccc2C1=O [NSC 693874] NO

Moving on to the next compound: CC(=O)C1(CC2=C(C)C(=O)c3ccccc3C2=O)S(=O)(=O)OCCOS1(=O)=O [NSC 701690] YES

* * *

- Test system: COLO205
- method-description: NCI screen, growth of human tumor cells: Colon Cancer COLO205
- Type: cell-based
- run-conditions: COLO205, 10^−4 molar
metric-name: % Growth (%)
Express the result in % but write the number alone.

Please report the recorded % Growth for CC1(C)OCC(COC(=O)C(=O)C2(Cc3ccc4c(c3)C(=O)c3ccccc3C4=O)S(=O)(=O)OCCOS2(=O)=O)O1 (stereo not drawn) . −96

Similarly, `CC(=O)C1(CC2=C(C)C(=O)c3ccccc3C2=O)S(=O)(=O)OCCOS1(=O)=O` ? −100

Next molecule up: O=S1(=O)OCCOS(=O)(=O)C1(I)I [NSC 648308, ethylene diiodomethanedisulfonate] −61

Record: `CC1=C(CC2(C(=O)C(F)(F)C(F)(F)C(F)(F)F)S(=O)(=O)OCCOS2(=O)=O)C(=O)c2ccccc2C1=O` −84

Item: `CC1=C(CC2(S(=O)(=O)C(F)(F)F)S(=O)(=O)OCCOS2(=O)=O)C(=O)c2ccccc2C1=O` −88

Again, but for `Cc1ccc2ccccc2c1CC1S(=O)(=O)OCCOS1(=O)=O` −98

* * *

Please go through the items and note down their melting point.

GET /values?readout=melting point&item= O=S1(=O)OCCOS(=O)(=O)C1I [NSC 648309, ethylene iodomethanedisulfonate] 144 to 160 °C

Same lookup for O=S1(=O)OCCOS(=O)(=O)C1(Br)Br [NSC 648304, ethylene dibromomethanedisulfonate] , please. 214 to 220 °C

O=S1(=O)CS(=O)(=O)OCCO1 [NSC 348948, ethylene methanedisulfonate] , same question. 176 to 180 °C

Can you check O=S1(=O)OCCOS(=O)(=O)C1(F)Br [NSC 665943, ethylene fluorobromomethanedisulfonate] next? 82 to 90 °C

Here is the next compound: O=S1(=O)OCCOS(=O)(=O)C1Br [NSC 648305, ethylene bromomethanedisulfonate] 128 to 134 °C

Also need O=S1(=O)OCCOS(=O)(=O)C1C1c2ccccc2-c2ccccc21 [NSC 686562, ethylene 9-fluorenylmethanedisulfonate] , thanks. 118 to 124 °C

Moving on to the next compound: O=S1(=O)OCCOS(=O)(=O)C1F [NSC 665942, ethylene fluoromethanedisulfonate] 84 to 86 °C

Continue with O=S1(=O)OCCOS(=O)(=O)C1Cl [MWC 91-6, ethylene chloromethanedisulfonate] 85 to 88 °C

* * *

Provide the reported % Growth of each item.
- System: BT-549
- method-description: NCI screen, growth of human tumor cells: Breast Cancer BT-549
- Format: cell-based
- run-conditions: BT-549, 10^−4 molar
Quick reminder: number only, in %, skip the unit.

# input compound: `CC1=C(CC2S(=O)(=O)OCCOS2(=O)=O)C(=O)c2ccccc2C1=O` ; wanted: its % Growth −100

Repeat with `CC1=C(CC2(S(=O)(=O)C(F)(F)F)S(=O)(=O)OCCOS2(=O)=O)C(=O)c2ccccc2C1=O` −78

Here is the next compound: `CC(=O)C1(CC2=C(C)C(=O)c3ccccc3C2=O)S(=O)(=O)OCCOS1(=O)=O` −100

// query: `N#CCCC1(CCC#N)S(=O)(=O)OCCOS1(=O)=O` 18

Could you do the same for O=S1(=O)OCCOS(=O)(=O)C1(F)Br [NSC 665943, ethylene fluorobromomethanedisulfonate] , please? 12

Moving on to `Cc1ccc2ccccc2c1CC1S(=O)(=O)OCCOS1(=O)=O` −82

* * *

Field: % Growth. Provide a value for each of the compounds that follow.
- Test system: OVCAR-4
- method-description: NCI screen, growth of human tumor cells: Ovarian Cancer OVCAR-4
- Assay type: cell-based
- run-conditions: OVCAR-4, 10^−4 molar
Give your result in % as a bare value.

Return reported % Growth; argument: CC(=O)C1(CC2=C(C)C(=O)c3ccccc3C2=O)S(=O)(=O)OCCOS1(=O)=O [NSC 701690] −100

Field entry: CC1(C)OCC(COC(=O)C(=O)C2(Cc3ccc4c(c3)C(=O)c3ccccc3C4=O)S(=O)(=O)OCCOS2(=O)=O)O1 (centres unmarked) [NSC 737276] −73

Then this compound: CC1=C(CC2S(=O)(=O)OCCOS2(=O)=O)C(=O)c2ccccc2C1=O [NSC 693874] −89

Next: Cc1ccc2ccccc2c1CC1S(=O)(=O)OCCOS1(=O)=O [NSC 679043] −97

Note, next up: CCOCC1(COCC)S(=O)(=O)OCCOS1(=O)=O [NSC 698120] −88

* * *

- System: SK-MEL-5
- method-description: NCI screen, growth of human tumor cells: Melanoma SK-MEL-5
- Assay type: cell-based
- run-conditions: SK-MEL-5, 10^−4 molar
Consider the following molecules; for each one, report its % Growth.
Hi! Could you send only the number? It should be in %, unit omitted.

Fill blank: measured % Growth of the molecule O=S1(=O)OCCOS(=O)(=O)C1(I)I [NSC 648308, ethylene diiodomethanedisulfonate] is ____. −91

// same read-out, input: `CC(=O)C1(CC2=C(C)C(=O)c3ccccc3C2=O)S(=O)(=O)OCCOS1(=O)=O` −100

Also need `CC=CC(=O)C1(C2=C(Cl)C(=O)c3ccccc3C2=O)S(=O)(=O)OCCOS1(=O)=O` , thanks. −53

Query CC(=O)O[C@H]1CC[C@]2(C)C3C(=O)C[C@]4(C)[C@@H](C(C)=O)CC[C@@]4(C)[C@@H]3CC[C@H]2C1(C)C (stereo partly drawn) next −78

Then `CC1=C(CC2(S(=O)(=O)C(F)(F)F)S(=O)(=O)OCCOS2(=O)=O)C(=O)c2ccccc2C1=O` ? −91

Now consider `CC1=C(CC2S(=O)(=O)OCCOS2(=O)=O)C(=O)c2ccccc2C1=O` and answer again. −100

Cool, now `CC=CC(=O)C1(CC2=C(C)C(=O)c3ccccc3C2=O)S(=O)(=O)OCCOS1(=O)=O` −67

Param item: `CC1=C(CC2(C(=O)C(F)(F)C(F)(F)C(F)(F)F)S(=O)(=O)OCCOS2(=O)=O)C(=O)c2ccccc2C1=O` −95

Same question, `Cc1ccc2ccccc2c1CC1S(=O)(=O)OCCOS1(=O)=O` this time −91

* * *

I'd appreciate it if you could supply percent of growth of human tumor cells values for the items below.
- System: SNB-75
- method-description: NCI screen, growth of human tumor cells: CNS Cancer SNB-75
- Format: cell-based
- run-conditions: SNB-75 (CNS Cancer), 10^−4 molar
Express it in %; write the number only.

percent of growth of human tumor cells for `O=S1(=O)OCCOS(=O)(=O)C1=NNc1c(O)cc(S(=O)(=O)O)c2ccccc12` ? 7

Please do the same for `CCOCC1(CC2=C(C)C(=O)c3ccccc3C2=O)S(=O)(=O)OCCOS1(=O)=O` as well. 11

Please give the result for O=S1(=O)OCCOS(=O)(=O)C1(I)I [NSC 648308, ethylene diiodomethanedisulfonate] too. −36

Another compound to look at: `CC=CC(=O)C1(CC2=C(C)C(=O)c3ccccc3C2=O)S(=O)(=O)OCCOS1(=O)=O` −26

Proceed to `CC1S(=O)(=O)OCCOS1(=O)=O` 28

Next: O=S1(=O)CS(=O)(=O)OCCO1 [NSC 348948, ethylene methanedisulfonate] 18

Next up: `CC=CC(=O)C1(C2=C(Cl)C(=O)c3ccccc3C2=O)S(=O)(=O)OCCOS1(=O)=O` −33

And then `N#CCCC1(CCC#N)S(=O)(=O)OCCOS1(=O)=O` , what is it? 28

Also need `C[Si](C)(OCCS(=O)(=O)O)C1S(=O)(=O)OCCOS1(=O)=O` , thanks. −24
